Field: growth. Provide a value for each of the molecules that follow.
Tested on: SF-295 CNS
Assay Details: NCI-60 one-dose screen, 48 h (100 = growth as untreated, 0 = no growth, -100 = all killed)
Condition Summary: 10 µM unless noted
The panel holds about 83,000 compounds, 20% with a hit somewhere; the sample as a whole holds those more often. The source made the active and inactive calls. The calls were made as follows: active = growth percent below 10; inactive = the rest.

Can you share its growth? I mean this molecule: COc1cccc([C@H]2c3[nH]c4ccccc4c3C[C@H]3C(=O)N(CCCCCCC(=O)NO)CC(=O)N23)c1
87.5% (inactive)

What value of measured growth is listed for C=C(C)[C@@H]1CC[C@]2(C(=O)OC)CC[C@]3(C)[C@H](CC[C@@H]4[C@@]5(C)C/C(=C/NC(N)=S)C(=O)C(C)(C)[C@@H]5CC[C@]43C)[C@@H]12 ?
99.4% (inactive)

Requested field: growth. Item: C#COc1cccc(Nc2ncnc3ncc(NC(=O)CCl)cc23)c1
33.5% [6.25 µM] (inactive)

Please report the recorded growth for O=[N+]([O-])c1ccc(N/N=C(/C(=N/Nc2ccc([N+](=O)[O-])cc2)c2ccccc2)c2ccccc2)cc1 .
69.3% (inactive)

Item under review: COc1cc(/C=C\c2cc(/C=C\c3ccc(O)c(OC)c3)n(C(=O)COc3ccc(Cl)cc3Cl)n2)ccc1O . Reported growth?
23.1% (inactive)

Give the measured growth of C=CCn1c(SCC(=O)Nc2ccc(C(=O)/C=C/c3ccc(Cl)cc3)cc2)nnc1-c1cc(-c2ccc(S(N)(=O)=O)cc2)nc2ccccc12 .
97.5% (inactive)

Need growth of Cc1ccc(-c2nc(/C=C3/C(=O)Nc4ccccc43)c3ccccn23)cc1 , thanks.
91.9% (inactive)

Return reported growth; argument: O=C(Nc1cc(Cl)ccc1O)c1ccc(Nc2ccnc(C(F)(F)F)c2)cc1
-7.57% (active)

Recorded growth for CCOC(=O)Cn1c(O)c(N=Nc2ccc(S(N)(=O)=O)cc2)c2cc(Br)ccc21 , please?
96.8% (inactive)

Please give the measured growth for this molecule: O=C(c1ccc(-c2ccccc2)cc1)c1ccc([N+](=O)[O-])cc1
83.6% (inactive)

Consider the molecule CC(C)c1ccc(NC(=O)Nc2ccc(NC(=O)CCCC(=O)NOCc3ccccc3)cc2)cc1 and give its measured growth.
91.2% (inactive)

Entry CC(=O)N(N=Nc1ccccc1)c1cccc2ccccc12 has what growth?
68.2% (inactive)

Reported growth for Cc1cc(Cl)ccc1NC(=O)c1cc2ccccc2cc1O : what is it?
8.91% (active)

Request the reported growth associated with O=S(=O)(NCCNc1cc(-c2c(-c3cccc(O)c3)nc3sccn23)ccn1)c1ccc(C(F)(F)F)cc1
31.2% (inactive)

For the molecule shown here, CN(CCOc1ccc(C#N)cc1)CCOc1ccc(C#N)cc1 , give the reported growth.
483% (inactive)

May I ask what growth has been recorded for O=C1/C(=C/c2cccs2)SC(=S)N1CCCN1CCOCC1 ?
102% (inactive)

Return reported growth; argument: O=C(CSc1nc2ccc([N+](=O)[O-])cc2[nH]1)Nc1cccc(C(F)(F)F)c1
33% (inactive)

Record request: growth value, item O=C(NNc1nccc(Nc2ccc(S(=O)(=O)Nc3ccncc3)cc2)n1)c1ccccc1
104% (inactive)

What value of growth has been recorded for this entry: O=C1c2cccnc2C(=O)c2c1c(C(=O)NCCCN1CCCCC1)c1ccccn21
-13.6% (active)

Any idea what its growth is? The molecule is COc1ccc(N2CCC(=O)NC2=S)cc1
100% (inactive)

I have this molecule here, Cc1cccc(Cl)c1NC(=O)c1ccc2nc(NC(=O)NCCN(C)C)sc2c1 , and I need its recorded growth.
86.7% (inactive)

Suppose we examine the molecule Cc1c(-c2nc3ccc(F)cc3c(=O)[nH]2)c2ccccc2n1C ; what growth value has been reported?
15.1% (inactive)

Consider the molecule shown here: Cn1c(=O)c2c(nc(NC3=NS(=O)(=O)c4ccccc43)n2CC(=O)N2CCc3ccccc32)n(C)c1=O What is its recorded growth?
105% (inactive)

GET /values?readout=growth&item= CN(C)c1ccc(Nc2cc(-c3cccc(OC(F)(F)F)c3)nc3ccc(N4CCCC4)cc23)cc1
108% (inactive)

Look up growth for this molecule: COc1ccc2c3c([nH]c2c1)C(=O)c1nc(C)ccc1C3=O
45.8% (inactive)

I'd like to know its growth. The molecule in question is CCOC(=O)c1c(NC(=O)c2ccc(C(C)C)cc2)sc2c(CN(C)C)c(O)ccc12
4.37% (active)

Value lookup for growth; key = CCCNC(=O)Oc1ccc(/C(=C(/C)Cc2ccc(OC)cc2)c2ccc(OCCCN(C)C)cc2)cc1
88.2% (inactive)

Name the reported growth value associated with the molecule COC(=O)[C@H]1CCCN1C[C@@H](O)CN1C(=O)/C(=C\c2cc(OC)c(OC)c(OC)c2)c2ccccc21
105% (inactive)

Recorded growth of CC(=O)c1cc(O)c2ccccc2c1O , please.
108% (inactive)

I would be grateful if you could share the reported growth for Cc1ccc(CNc2ccc(Cl)cc2NCc2ccc(C)c(O)c2)cc1O .
74.2% (inactive)

Item under review: N#Cc1nn(-c2cc(=O)[nH]c3ccc(Cl)cc23)c(N)c1C#N . Reported growth?
97.6% (inactive)

Reported growth for Nc1nc(=S)c2ncn(C3OC(COP(=O)(O)O)C(O)C3O)c2[nH]1 (centres undefined) : what is it?
19.9% (inactive)

growth for O=C(Nc1ccc(-c2nc(N3CCOCC3)c3cccn3n2)cc1)Nc1cccnc1 ?
-36.4% (active)

// returns reported growth for input O=c1oc2ccccc2cc1C1=NN=C(SCc2ccccc2)SC1
98.9% (inactive)

Look at this molecule and give its reported growth. Fc1cc(F)cc(C(c2c[nH]c3ccccc23)c2c[nH]c3ccccc23)c1
78.6% (inactive)

// growth lookup, key: O=S(=O)(Nc1cc(Br)c(O)c2ccccc12)c1ccc(F)cc1
95% (inactive)

Requested read-out: growth. Entry: COc1ccc(-c2nc(SCC(C)C)nc(N/N=C\c3ccc(F)cc3)c2C#N)cc1
75.8% (inactive)

Field request: growth | item: O=[N+]([O-])c1ccc(-c2nc(N3CCOCC3)c3c4c(sc3n2)CCCC4)cc1
87.4% (inactive)

Item under review: COC(=O)c1cc(-c2ccc(S(C)(=O)=O)cc2)[nH]c1N/N=C/c1c(Cl)cccc1Cl . Reported growth?
-28.2% (active)

----------
Test system: CAKI-1 renal
Assay Details: NCI-60 one-dose screen, 48 h (100 = growth as untreated, 0 = no growth, -100 = all killed)
Condition Summary: 10 µM unless noted
The panel holds about 83,000 compounds, 20% with a hit somewhere; the sample as a whole holds those more often. The source made the active and inactive calls. The calls were made as follows: active = growth percent below 10; inactive = the rest.
Observable: growth

For CCN(CC)CCSc1nc(-c2ccccc2)c(C#N)c(=O)[nH]1 , what is its reported growth?
99.8% (inactive)

Reported growth for COP(=O)(OC)C(C)(C)CC(=O)CC(C#N)(C#N)C(C#N)C#N : what is it?
96.4% (inactive)

Report growth for COC(=O)c1cc(-c2ccc(OC)cc2)[nH]c1N/N=C/c1c(Cl)cccc1Cl please.
-5.7% (active)

// lookup growth for O=C(CCCCCCN1CC(=O)N2[C@H](c3cc(Br)cs3)c3[nH]c4ccccc4c3C[C@H]2C1=O)NO
43.7% (inactive)

// returns reported growth for input Nc1c(C(=O)Nc2ccccc2Cl)sc2nc3c(cc12)C(O)CCC3 (stereo not drawn)
49.6% (inactive)

Fill in: growth of COc1ccc(-c2nc3c(c(-c4ccccc4)nn3-c3ccccc3)c(-c3ccc(N4CCOCC4)cc3)c2C#N)cc1 is ___
93.7% (inactive)

Need growth of COc1ccc2nc3ccc(OC)cc3c(SCCCN)c2c1 , thanks.
74.1% (inactive)

Using the record for CCc1ccc(C(=O)/C=C/C23c4ccccc4C(c4ccccc42)C2C(=O)NC(=O)C23)cc1 (stereo not drawn) , report its growth.
27.5% (inactive)

Look at this molecule and give its reported growth. COc1ccc(C(=O)Nc2ncc(Cc3cccc(Cl)c3)s2)cc1OC
12.8% (inactive)

I have this molecule here, C#CCOc1ccc2ncnc(Nc3cccc(NC(=O)C=C)c3)c2c1 , and I need its recorded growth.
45.5% (inactive)

Given CCOC(=O)C1=NN(c2ccccc2)C(=O)/C1=C\N1C(=O)CC(=O)NC1=S , state its recorded growth.
41.2% (inactive)

For the molecule CCOC(=O)c1cnc2ccccc2c1Cl , what growth is on record?
94.8% (inactive)

I would be grateful if you could share the reported growth for COc1ccc(-c2cc(-c3ccc(Cl)cc3)c(C#N)c(=O)n2CCCCC(=O)Nc2ccccc2N)cc1 .
1.45% (active)

Could you share which growth value was measured for CN(Cc1ccc(C(F)(F)F)cc1)CC(O)C(=O)Nc1ccc(Cl)cc1 (stereo not drawn) ?
-59.6% (active)

Which value of growth has been reported for O=C1CC(N2C(=O)/C(=C/C(Cl)=C\c3ccc([N+](=O)[O-])cc3)SC2=S)C(=O)N1c1ccc(Cl)cc1 (stereo not drawn) in the records?
23.5% (inactive)

I am curious: what growth value has been reported for C/C(=N/O)c1ccc(F)cc1 ?
61% (inactive)

Recorded growth for COc1cc(CNC(=O)CCCC/C=C/C(C)C)ccc1OCc1nnc(Nc2ccc([N+](=O)[O-])cc2)o1 , please?
33.6% (inactive)

For the molecule shown here, O=S(=O)(Nc1cc(Br)c(O)c2ccccc12)c1ccc(F)cc1 , give the reported growth.
80.5% (inactive)

// returns reported growth for input CS(=O)(=O)c1cccc(-c2c(-c3cccc(OS(N)(=O)=O)c3)nc3sccn23)c1
81.2% (inactive)

I am curious: what growth value has been reported for COc1ccc(C2=Nc3c/c(=C\c4c(O)[nH]c5ccc(Cl)cc45)ccc3=N2)cc1 ?
51.3% (inactive)

Consider the molecule O=C1C(Cl)=C(Oc2ccccc2)C(=O)c2ccccc21 and give its measured growth.
76.9% (inactive)

# input molecule: COC(=O)CCC(=O)C(=O)OC ; wanted: its growth
10.2% [10 mM] (inactive)

Suppose we examine the molecule CCN(c1ccc(Cl)cc1)c1nc(-c2ccc([N+](=O)[O-])cc2)cs1 ; what growth value has been reported?
79.6% (inactive)

Which growth reading was recorded for the molecule CCCCCCCCCCCCCCCCCCOc1ccccc1CC(=O)NCC[N+]1(C)CCCC1 ?
74% (inactive)

Form field: reported growth of CO[C@]12C=C/C(=C(/C(=O)OCc3cccnc3)C(=O)CCCCCCCC[C@@]3(OC)C=C/C(=C(/C(=O)OCc4cccnc4)C(=O)CCCCCCCC1)O3)O2
22.9% (inactive)

Give the measured growth of CCCCCCCCn1ccc2cc(NC(=O)Cn3cc(CN4CCCCC4)nn3)ccc21 .
-45% (active)

Param item = c1cc2[nH]ncc2cc1-c1nc2ccc3[nH]ncc3c2c2c1CCCC2 ; retrieve measured growth.
9.5% (active)

Requested field: growth. Item: Cn1cc(-c2csc(-c3c[nH]c4ccc(Br)cc34)n2)c2cnccc21
-97% (active)

Tell me the measured growth of CCc1nc2c(=O)[nH]cnc2o1 , please.
100% (inactive)

Recorded growth of C=C(C)[C@@H]1CC[C@]2(C)[C@H](CC=C3[C@@H]4[C@H](C)[C@@H](C)CC[C@]4(CO)CC[C@]32C)[C@@]1(C)CCCN , please.
22.4% (inactive)

Tell me the measured growth of CCNc1nc(-c2ccc(Cl)c(OC)c2)c(-c2ccnc(NCCCNS(=O)(=O)c3ccc(Cl)cc3)n2)s1 , please.
59% (inactive)

Would you kindly share the measured growth for CN1C(=O)N(C)C2Nn3c(s/c(=C\c4ccc(C(F)(F)F)cc4)c3=O)=NC21 (stereo not drawn) ?
82.7% (inactive)

For C=C(C)[C@@H]1CC[C@]2(C(=O)NCCNCCN)CC[C@]3(C)[C@H](CC[C@@H]4[C@@]5(C)C/C(=C/c6ccncc6)C(=O)C(C)(C)[C@@H]5CC[C@]43C)[C@@H]12 , what is its reported growth?
85.6% (inactive)

Can you share its growth? I mean this molecule: Cc1ccc(S(=O)(=O)N2CCCC2CO)cc1 (stereo not drawn)
85.6% (inactive)

Fill blank: measured growth of the molecule C=CCn1c(SCC(=O)Nc2ccc(C(=O)/C=C/c3ccc(Cl)cc3)cc2)nnc1-c1cc(-c2ccc(S(N)(=O)=O)cc2)nc2ccccc12 is ____.
66.3% (inactive)

Name the reported growth value associated with the molecule C[C@H](NC(=O)[C@@H](C)N)[C@H](Oc1ccc2c(cnn2-c2ccc(F)cc2)c1)c1ccc2c(c1)OCCO2
20.4% (inactive)

// returns reported growth for input O=C(O)c1ccc(-n2cc(/C=N/Nc3ccc(F)cc3)c(-c3cc4ccccc4oc3=O)n2)cc1
68.6% (inactive)

growth lookup needed for CN(C)CCNc1nc2c3cc(Cl)ccc3nn2c2ccccc12 , thanks.
40.4% (inactive)
